Test system: HeLa Kyoto
Test: solubility in G1/S (NP-40 vs SDS abundance) (log2 ratio); higher = more soluble
Conditions: cell cycle stage: G1/S
observed property: solubility in G1/S (log2)
Lab note: record the figure alone, no unit after it.

item sequence	observed property	meas value
MLPLLRCVPRVLGSSVAGLRAAAPASPFRQLLQPAPRLCTRPFGLLSVRAGSERRPGLLRPRGPCACGCGCGSLHTDGDKAFVDFLSDEIKEERKIQKHKTLPKMSGGWELELNGTEAKLVRKVAGEKITVTFNINNSIPPTFDGEEEPSQGQKVEEQEPELTSTPNFVVEVIKNDDGKKALVLDCHYPEDEVGQEDEAESDIFSIREVSFQSTGESEWKDTNYTLNTDSLDWALYDHLMDFLADRGVDNTFADELVELSTALEHQEYITFLEDLKSFVKSQ [C1QBP]	solubility in G1/S (log2)	0.515

Req: Please give the measured solubility in G1/S (log2) for this sequence: MAAEGWIWRWGWGRRCLGRPGLLGPGPGPTTPLFLLLLLGSVTADITDGNSEHLKREHSLIKPYQGVGSSSMPLWDFQGSTMLTSQYVRLTPDERSKEGSIWNHQPCFLKDWEMHVHFKVHGTGKKNLHGDGIALWYTRDRLVPGPVFGSKDNFHGLAIFLDTYPNDETTERVFPYISVMVNNGSLSYDHSKDGRWTELAGCTADFRNRDHDTFLAVRYSRGRLTVMTDLEDKNEWKNCIDITGVRLPTGYYFGASAGTGDLSDNHDIISMKLFQLMVEHTPDEESIDWTKIEPSVNFLKSPKDNVDDPTGNFRSGPLTGWRVFLLLLCALLGIVVCAVVGAVVFQKRQERNKRFY [LMAN2]
Resp: 0.163

====

# key: entry, value: melting temperature
Tested on: HeLa Kyoto
Assay: melting temperature (median over replicates), in situ; higher = more thermally stable
Conditions: cell cycle stage: mitosis
Give the quantity in °C, number only.

As a guide, the following entries are already answered.
item sequence	unit abbrev	melting temperature
MGRLVAVGLLGIALALLGERLLALRNRLKASREVESVDLPHCHLIKGIEAGSEDIDILPNGLAFFSVGLKFPGLHSFAPDKPGGILMMDLKEEKPRARELRISRGFDLASFNPHGISTFIDNDDTVYLFVVNHPEFKNTVEIFKFEEAENSLLHLKTVKHELLPSVNDITAVGPAHFYATNDHYFSDPFLKYLETYLNLHWANVVYYSPNEVKVVAEGFDSANGINISPDDKYIYVADILAHEIHVLEKHTNMNLTQLKVLELDTLVDNLSIDPSSGDIWVGCHPNGQKLFVYDPNNPPSSEVLRIQNILSEKPTVTTVYANNGSVLQGSSVASVYDGKLLIGTLYHRALYCEL [PON2]	°C	53.6
MASRAGPRAAGTDGSDFQHRERVAMHYQMSVTLKYEIKKLIYVHLVIWLLLVAKMSVGHLRLLSHDQVAMPYQWEYPYLLSILPSLLGLLSFPRNNISYLVLSMISMGLFSIAPLIYGSMEMFPAAQQLYRHGKAYRFLFGFSAVSIMYLVLVLAVQVHAWQLYYSKKLLDSWFTSTQEKKHK [JAGN1]	°C	54.8

Alright, here's another sequence for you.
Req: Test system HeLa Kyoto; read-out melting temperature; what value for MGSRVSREDFEWVYTDQPHADRRREILAKYPEIKSLMKPDPNLIWIIIMMVLTQLGAFYIVKDLDWKWVIFGAYAFGSCINHSMTLAIHEIAHNAAFGNCKAMWNRWFGMFANLPIGIPYSISFKRYHMDHHRYLGADGVDVDIPTDFEGWFFCTAFRKFIWVILQPLFYAFRPLFINPKPITYLEVINTVAQVTFDILIYYFLGIKSLVYMLAASLLGLGLHPISGHFIAEHYMFLKGHETYSYYGPLNLLTFNVGYHNEHHDFPNIPGKSLPLVRKIAAEYYDNLPHYNSWIKVLYDFVMDDTISPYSRMKRHQKGEMVLE [DEGS1] ?
Resp: 55.2

====

System: HeLa Kyoto
Assay: solubility change mitosis vs G1/S (difference of NP-40 vs SDS log2 ratios) (log2 ratio difference); higher = more soluble in mitosis
observed property: solubility change mitosis (log2)
Form field (numeric): enter value without unit.

item sequence	experimental target	observed property	meas value
MAQQQMTSSQKALMLELKSLQEEPVEGFRITLVDESDLYNWEVAIFGPPNTLYEGGYFKAHIKFPIDYPYSPPTFRFLTKMWHPNIYENGDVCISILHPPVDDPQSGELPSERWNPTQNVRTILLSVISLLNEPNTFSPANVDASVMFRKWRDSKGKDKEYAEIIRKQVSATKAEAEKDGVKVPTTLAEYCIKTKVPSNDNSSDLLYDDLYDDDIDDEDEEEEDADCYDDDDSGNEES [UBE2R2]	HeLa Kyoto	solubility change mitosis (log2)	0.134
MAFRQALQLAACGLAGGSAAVLFSAVAVGKPRAGGDAEPRPAEPPAWAGGARPGPGVWDPNWDRREPLSLINVRKRNVESGEEELASKLDHYKAKATRHIFLIRHSQYHVDGSLEKDRTLTPLGREQAELTGLRLASLGLKFNKIVHSSMTRAIETTDIISRHLPGVCKVSTDLLREGAPIEPDPPVSHWKPEAVQYYEDGARIEAAFRNYIHRADARQEEDSYEIFICHANVIRYIVCRALQFPPEGWLRLSLNNGSITHLVIRPNGRVALRTLGDTGFMPPDKITRS [PGAM5]	HeLa Kyoto	solubility change mitosis (log2)	0.121
MAALAPLPPLPAQFKSIQHHLRTAQEHDKRDPVVAYYCRLYAMQTGMKIDSKTPECRKFLSKLMDQLEALKKQLGDNEAITQEIVGCAHLENYALKMFLYADNEDRAGRFHKNMIKSFYTASLLIDVITVFGELTDENVKHRKYARWKATYIHNCLKNGETPQAGPVGIEEDNDIEENEDAGAASLPTQPTQPSSSSTYDPSNMPSGNYTGIQIPPGAHAPANTPAEVPHSTGVASNTIQPTPQTIPAIDPALFNTISQGDVRLTPEDFARAQKYCKYAGSALQYEDVSTAVQNLQKALKLLTTGRE [VTA1]	HeLa Kyoto	solubility change mitosis (log2)	0.325

Req: Please give the measured solubility change mitosis (log2) for this sequence: MAMRQTPLTCSGHTRPVVDLAFSGITPYGYFLISACKDGKPMLRQGDTGDWIGTFLGHKGAVWGATLNKDATKAATAAADFTAKVWDAVSGDELMTLAHKHIVKTVDFTQDSNYLLTGGQDKLLRIYDLNKPEAEPKEISGHTSGIKKALWCSEDKQILSADDKTVRLWDHATMTEVKSLNFNMSVSSMEYIPEGEILVITYGRSIAFHSAVSLDPIKSFEAPATINSASLHPEKEFLVAGGEDFKLYKYDYNSGEELESYKGHFGPIHCVRFSPDGELYASGSEDGTLRLWQTVVGKTYGLWKCVLPEEDSGELAKPKIGFPETTEEELEEIASENSDCIFPSAPDVKA [STRAP]
Resp: -0.127

====

System: HeLa Kyoto
Test: solubility in G1/S (NP-40 vs SDS abundance) (log2 ratio); higher = more soluble
Details: cell cycle stage: G1/S
Entries and their solubility in G1/S (log2) values follow.
Returns: the value as a bare number; no unit string appended.

Recorded results for 2 sequences are shown here.
item sequence	solubility in G1/S (log2)
MAPHDPGSLTTLVPWAAALLLALGVERALALPEICTQCPGSVQNLSKVAFYCKTTRELMLHARCCLNQKGTILGLDLQNCSLEDPGPNFHQAHTTVIIDLQANPLKGDLANTFRGFTQLQTLILPQHVNCPGGINAWNTITSYIDNQICQGQKNLCNNTGDPEMCPENGSCVPDGPGLLQCVCADGFHGYKCMRQGSFSLLMFFGILGATTLSVSILLWATQRRKAKTS [ATRAID]	-0.19
MYTFVVRDENSSVYAEVSRLLLATGHWKRLRRDNPRFNLMLGERNRLPFGRLGHEPGLVQLVNYYRGADKLCRKASLVKLIKTSPELAESCTWFPESYVIYPTNLKTPVAPAQNGIQPPISNSRTDEREFFLASYNRKKEDGEGNVWIAKSSAGAKGEGILISSEASELLDFIDNQGQVHVIQKYLEHPLLLEPGHRKFDIRSWVLVDHQYNIYLYREGVLRTASEPYHVDNFQDKTCHLTNHCIQKEYSKNYGKYEEGNEMFFKEFNQYLTSALNITLESSILLQIKHIIRNCLLSVEPAISTKHLPYQSFQLFGFDFMVDEELKVWLIEVNGAPACAQKLYAELCQGIVDIAISSVFPPPDVEQPQTQPAAFIKL [TTL]	0.146

Req: Data request, read-out solubility in G1/S (log2), for MAGSYPEGAPAVLADKRQQFGSRFLRDPARVFHHNAWDNVEWSEEQAAAAERKVQENSIQRVCQEKQVDYEINAHKYWNDFYKIHENGFFKDRHWLFTEFPELAPSQNQNHLKDWFLENKSEVPECRNNEDGPGLIMEEQHKCSSKSLEHKTQTLPVEENVTQKISDLEICADEFPGSSATYRILEVGCGVGNTVFPILQTNNDPGLFVYCCDFSSTAIELVQTNSEYDPSRCFAFVHDLCDEEKSYPVPKGSLDIIILIFVLSAIVPDKMQKAINRLSRLLKPGGMMLLRDYGRYDMAQLRFKKGQCLSGNFYVRGDGTRVYFFTQEELDTLFTTAGLEKVQNLVDRRLQVNRGKQLTMYRVWIQCKYCKPLLSSTS [METTL2A]
Resp: 0.185

Data credit: the supplement of paper PMC5998384
